# Tested on: Escherichia coli
# measurementNotes: Antibacterial activity against Escherichia coli at 10000 ppm after 24 hrs by agar diffusion method
# Format: functional
# conditionDescription: read-out: IZ
measurementLabel: zone of inhibition at 10000 ppm (mm)
Answers are plain numbers, in mm.

As a guide, the following entries are already answered.
CC1=NN(c2ccccc2)C2(C1)NC(N)=Nc1nc3ccccc3n12 (stereo unspecified) = 8
NC1=Nc2nc3ccccc3n2C2(NC(=O)CC(=O)N2)N1 = 8
c1ccc(-c2c[nH]/c(=N/c3nc4ccccc4[nH]3)[nH]2)cc1 = 4
CC1(C)[C@@H]2CC[C@@]1(C)C1(C2)NC(N)=Nc2nc3ccccc3n21 (stereo partly specified) = 4
NC1=NC2(CCCCC2)n2c(nc3ccccc32)N1 = 12

Batch request: zone of inhibition at 10000 ppm for each of the following compounds.
1. Clc1c[nH]/c(=N/c2nc3ccccc3[nH]2)[nH]1
2. Cc1c[nH]/c(=N/c2nc3ccccc3[nH]2)[nH]1
3. Oc1c[nH]/c(=N/c2nc3ccccc3[nH]2)[nH]1
4. N#Cc1[nH]/c(=N/c2nc3ccccc3[nH]2)[nH]c1N
5. Nc1c[nH]/c(=N/c2nc3ccccc3[nH]2)[nH]1
6. NC1=NC2(CCCC2)n2c(nc3ccccc32)N1

Ans:
9
1
6
8
3
12

====

# System: Micrococcus luteus
# measurementNotes: Antibacterial activity against Micrococcus luteus at 30000 ppm after 24 hrs by agar diffusion method
# Format: functional
# conditionDescription: read-out: IZ
Output Satisfied for zone of inhibition at 30000 ppm not less than 5 mm; output Not satisfied otherwise.

NC1=NC2(CCCC2)n2c(nc3ccccc32)N1 = Satisfied

Q: Kindly determine if zone of inhibition at 30000 ppm recorded for "N#Cc1[nH]/c(=N/c2nc3ccccc3[nH]2)[nH]c1N" is above or exactly 5 mm.
Ans: Satisfied

Q: Kindly determine if zone of inhibition at 30000 ppm recorded for "Cc1c[nH]/c(=N/c2nc3ccccc3[nH]2)[nH]1" is above or exactly 5 mm.
Ans: Satisfied

Q: Kindly determine if zone of inhibition at 30000 ppm recorded for "NC1=Nc2nc3ccccc3n2C2(NC(=O)CC(=O)N2)N1" is above or exactly 5 mm.
Ans: Not satisfied

Q: Kindly determine if zone of inhibition at 30000 ppm recorded for CC1=NN(c2ccccc2)C2(C1)NC(N)=Nc1nc3ccccc3n12 (centres undefined) is above or exactly 5 mm.
Ans: Satisfied

Q: Kindly determine if zone of inhibition at 30000 ppm recorded for "Nc1c[nH]/c(=N/c2nc3ccccc3[nH]2)[nH]1" is above or exactly 5 mm.
Ans: Not satisfied

Q: Kindly determine if zone of inhibition at 30000 ppm recorded for "NC1=NC2(CCCCC2)n2c(nc3ccccc32)N1" is above or exactly 5 mm.
Ans: Satisfied

Q: Kindly determine if zone of inhibition at 30000 ppm recorded for NC1=Nc2nc3ccccc3n2C2(NC(=O)CS2)N1 (centres undefined) is above or exactly 5 mm.
Ans: Not satisfied

====

# Test system: Pseudomonas aeruginosa
# measurementNotes: Antibacterial activity against Pseudomonas aeruginosa at 10000 ppm after 24 hrs by agar diffusion method
# Format: functional
# conditionDescription: read-out: IZ
Field: zone of inhibition at 10000 ppm. Provide a value for each of the compounds that follow.
Give bare numbers, in mm.

As a guide, the following entries are already answered.
Nc1c[nH]/c(=N/c2nc3ccccc3[nH]2)[nH]1 = 4
Oc1c[nH]/c(=N/c2nc3ccccc3[nH]2)[nH]1 = 5
NC1=Nc2nc3ccccc3n2C2(NC(=O)CC(=O)N2)N1 = 2
NC1=Nc2nc3ccccc3n2C2(NC(=O)CS2)N1 (stereo unspecified) = 5
N#Cc1[nH]/c(=N/c2nc3ccccc3[nH]2)[nH]c1N = 6

Kindly consider the entry below.
Q: Which value of zone of inhibition at 10000 ppm has been reported for "c1ccc(-c2c[nH]/c(=N/c3nc4ccccc4[nH]3)[nH]2)cc1" in the records?
Ans: 4
